- assay_notes: Metabolic stability in human hepatocytes
- Type: in vitro ADME
- test_settings: cryopreserved hepatocytes; human hepatocytes, 1 μM
CLint scaled at 1 μM values by entry
Dear colleague, please return just the value in mL/min/kg, with no unit written.

Guide cases for CLint scaled at 1 μM, answers given:
>  <molecule>
[2H]C([2H])(Oc1cccc(C2CCN(Cc3nc4ccc(C(=O)O)cc4n3Cc3cncs3)CC2)n1)c1ccc(C#N)cc1F

>  <CLint scaled at 1 μM [mL/min/kg]>
15.6

$$$$
>  <molecule>
N#Cc1ccc(COc2ccnc(C3CCN(Cc4nc5ccc(C(=O)O)cc5n4Cc4cncs4)CC3)n2)c(F)c1

>  <CLint scaled at 1 μM [mL/min/kg]>
10.6

$$$$
>  <molecule>
Cc1ncsc1Cn1c(CN2CCC3(c4cccc(OCc5ccc(C#N)cc5F)n4)CC3C2)nc2ccc(C(=O)O)cc21 (stereo not drawn)

>  <CLint scaled at 1 μM [mL/min/kg]>
26.8

$$$$
>  <molecule>
N#Cc1ccc(COc2cccc(N3CCN(Cc4nc5ccc(C(=O)O)cc5n4Cc4cncs4)CC3)n2)c(F)c1

>  <CLint scaled at 1 μM [mL/min/kg]>
7.18

$$$$

Q. I would be grateful if you could share the reported CLint scaled at 1 μM for `N#Cc1cnc(COc2cccc(C3CCN(Cc4nc5ccc(C(=O)O)cc5n4Cc4cncs4)CC3)n2)c(F)c1` .
A. 15.3

Q. I would be grateful if you could share the reported CLint scaled at 1 μM for N#Cc1ccc(COc2cccc(C34CCN(Cc5nc6ccc(C(=O)O)cc6n5Cc5cncs5)CC3C4)n2)c(F)c1 (stereo not drawn) .
A. 20.1

Q. I would be grateful if you could share the reported CLint scaled at 1 μM for `Cc1ncsc1Cn1c(CN2CCC(c3cccc(OCc4ccc(C#N)cc4F)n3)CC2)nc2ccc(C(=O)O)cc21` .
A. 24.3

Q. I would be grateful if you could share the reported CLint scaled at 1 μM for CC1(c2ccc(C#N)cc2F)Oc2cccc(C3CCN(Cc4nc5ccc(C(=O)O)cc5n4Cc4cncs4)CC3)c2O1 (stereo not drawn) .
A. 17.5

Q. I would be grateful if you could share the reported CLint scaled at 1 μM for `[2H]C([2H])(Oc1cccc(C2CCN(Cc3nc4ccc(C(=O)O)cc4n3Cc3cncs3)CC2)n1)c1ccc(Cl)cc1F` .
A. 20.9

====

- assay_notes: Pharmacokinetics in hGLP-1R mice after oral dosing
- Format: in vivo, male C57BL/6J hGLP-1R mouse
- test_settings: male, C57BL/6J hGLP-1R, mouse, plasma, po, 0.3 mg/kg, hGLP-1R mice, total, PO 0.3 mg/kg; read-out: AUClast Mean
observable: AUC(0-t) (ng·h/mL)
Dear colleague, please return just the value in ng·h/mL, with no unit written.

>  <compound>
N#Cc1ccc(COc2cccc(C3CCN(Cc4nc5ccc(C(=O)O)cc5n4C[C@@H]4CCO4)CC3)n2)c(F)c1 [Reference Compound A, reference compound]

>  <AUC(0-t) [ng·h/mL]>
24.5

$$$$

Shift focus to the following entry.
Q. I would be grateful if you could share the reported AUC(0-t) for N#Cc1ccc(COc2cccc(C3CCN(Cc4nc5ccc(C(=O)O)cc5n4Cc4cncs4)CC3)n2)c(F)c1 [Compound 2] .
A. 107

====

- assay_notes: Pharmacokinetics in hGLP-1R mice after oral dosing
- Assay type: in vivo, male C57BL/6J hGLP-1R mouse
- test_settings: male, C57BL/6J hGLP-1R, mouse, plasma, po, 1 mg/kg, hGLP-1R mice, total, PO 1.0 mg/kg; read-out: AUClast Mean
AUC(0-t) values by entry

>  <compound>
N#Cc1ccc(COc2cccc(C3CCN(Cc4nc5ccc(C(=O)O)cc5n4C[C@@H]4CCO4)CC3)n2)c(F)c1 [Reference Compound A, reference compound]

>  <AUC(0-t)>
85.5 ng·h/mL

$$$$

Shift focus to the following entry.
Q. I would be grateful if you could share the reported AUC(0-t) for `N#Cc1ccc(COc2cccc(C3CCN(Cc4nc5ccc(C(=O)O)cc5n4Cc4cncs4)CC3)n2)c(F)c1` .
A. 390 ng·h/mL
